The reported numbers originate from ChEMBL document CHEMBL1201862.

- System: SNB-75
- assay-name: NCI tumour cell line growth inhibition, 48 h
The source made the active and inactive calls. No stated cut-off is given here; in the data, active = GI50 up to about 1.1 µM and inactive = higher.

>  <compound>
COc1cc2oc(-c3ccc4c(c3)OCO4)c(OC)c(=O)c2c(O)c1OC

>  <GI50>
28.6 µM (inactive)

$$$$
>  <compound>
Cc1cc(CN2CCCCC2)c(O)c(CN2CCCCC2)c1

>  <GI50>
> 100 µM (inactive)

$$$$
>  <compound>
CSc1cc(Cl)c(C)cc1S(=O)(=O)NC(=O)NNc1ccccn1

>  <GI50>
5.21 µM (inactive)

$$$$
>  <compound>
Oc1ccnc(SCc2ccc(Cl)cc2)n1

>  <GI50>
> 100 µM (inactive)

$$$$
>  <compound>
COc1cccc(C2c3cc4c(cc3OC(N3CCOCC3)C2C)OCO4)c1 (configuration not stated)

>  <GI50>
28.3 µM (inactive)

$$$$
>  <compound>
Cc1c(Cl)cccc1N1C(=O)C(Cl)=C(Cl)C1=O

>  <GI50>
> 100 µM (inactive)

$$$$
>  <compound>
C(=N\c1nc2cc3sc(/N=C/c4cccs4)nc3cc2s1)/c1cccs1

>  <GI50>
> 100 µM (inactive)

$$$$
>  <compound>
Cc1[nH]n(-c2ccccc2)c(=O)c1C(N(CCc1ccccc1)C1=NCC(C)S1)(C(F)(F)F)C(F)(F)F (configuration not stated)

>  <GI50>
16.5 µM (inactive)

$$$$
>  <compound>
CCc1c(C)c(C#N)c(=S)n(C2OC(COC(C)=O)C(OC(C)=O)C(OC(C)=O)C2OC(C)=O)c1C (configuration not stated)

>  <GI50>
0.0113 µM (active)

$$$$
>  <compound>
CC(C)CCNc1ncnc2[nH]ncc12

>  <GI50>
> 100 µM (inactive)

$$$$
>  <compound>
COc1cc(C)c(CC/C(C)=C/Cc2cc(O)ccc2O)c(C)c1C [PANICEIN A HYDROQUINONE]

>  <GI50>
> 25 µM (inactive)

$$$$
>  <compound>
CC1=NN(c2ccc(S(=O)(=O)O)cc2)C2(C1)C(Cl)C(=O)N2c1nc2ccccc2s1 (configuration not stated)

>  <GI50>
> 100 µM (inactive)

$$$$
>  <compound>
O=C(O)CN1CCNCCN(CP(=O)(O)O)CC1

>  <GI50>
14.2 µM (inactive)

$$$$
>  <compound>
CCCCC1Nc2ccccc2-c2ccnc(Cl)c21 (configuration not stated)

>  <GI50>
13.5 µM (inactive)

$$$$
>  <compound>
CCOC(=O)N1CCN(c2nc(C)n(-c3ccccc3)c(=S)c2C#N)CC1

>  <GI50>
37.2 µM (inactive)

$$$$
>  <compound>
CCN(CC)CC(=O)O[C@]1(CC)C(=O)OCc2c1cc1n(c2=O)Cc2cc3ccccc3nc2-1

>  <GI50>
0.0266 µM (active)

$$$$
>  <compound>
C1CN(C23OC4(N5CCOCC5)C5C6CC(C7C6C4C72)C53)CCO1 (configuration not stated)

>  <GI50>
> 70.8 µM (inactive)

$$$$
>  <compound>
Cc1ccc2c(O)cc(-c3cc4ccccc4s3)nc2n1

>  <GI50>
17.5 µM (inactive)

$$$$
>  <compound>
CC(C)=CC(=O)OC1C2C(C)=CC(=O)C(O)C2(C)C2C3(O)OCC24C(CC(=O)OC14)C(C)C3O (configuration not stated)

>  <GI50>
0.0141 µM (active)

$$$$
>  <compound>
CC(CCCOC(c1ccccc1)(c1ccccc1)c1ccccc1)OC(=O)Nc1ccccc1 (configuration not stated)

>  <GI50>
14.5 µM (inactive)

$$$$
>  <compound>
Cc1nn(-c2ccccc2)c2c1N=C(C(=O)O)CC(c1ccccc1)=N2

>  <GI50>
> 10 µM (inactive)

$$$$
>  <compound>
CCCCCCCc1cscc1-c1cscc1Br

>  <GI50>
25.8 µM (inactive)

$$$$
>  <compound>
O=C(Nc1ccc(Cl)c(Cl)c1)C(=O)C(C(=O)c1ccccc1F)C1OC(=O)c2ccccc21 (configuration not stated)

>  <GI50>
18.6 µM (inactive)

$$$$
>  <compound>
C[C@H]1C(OCCOC2O[C@@H]3O[C@@]4(C)CC[C@H]5[C@H](C)CCC([C@H]2C)[C@@]35O4)O[C@@H]2O[C@@]3(C)CC[C@H]4[C@H](C)CCC1[C@@]24O3 (some centres not stated)

>  <GI50>
25.9 µM (inactive)

$$$$
>  <compound>
C=CC(=O)N1C/C(=C\c2ccc(OC)cc2)C(=O)/C(=C/c2ccc(OC)cc2)C1

>  <GI50>
6.05 µM (inactive)

$$$$
>  <compound>
O=S(=O)(O)CCS [MESNA]

>  <GI50>
39.7 µM (inactive)

$$$$
>  <compound>
S=C(NN=C1NCCCN1)Nc1ccccc1

>  <GI50>
> 100 µM (inactive)

$$$$
>  <compound>
CCOC(=O)c1cn(CC)c2ccc3c(c2c1=O)S(=O)(=O)C=C3

>  <GI50>
> 100 µM (inactive)

$$$$
>  <compound>
OC1CCCN(C2(c3cccs3)CCCCC2)C1 (configuration not stated)

>  <GI50>
> 100 µM (inactive)

$$$$
>  <compound>
O=C(c1ccsc1)c1cc2c(s1)C(=O)c1ccsc1C2=O

>  <GI50>
0.171 µM (active)

$$$$
>  <compound>
CCC(=O)C(C)C1=Nc2nnc(CCCCCCCc3nnc4n3C(=O)C(C(C)C(=O)CC)=N4)n2C1=O (configuration not stated)

>  <GI50>
> 100 µM (inactive)

$$$$
>  <compound>
OC(c1ccccc1)C(F)(F)c1nc2ccccc2o1 (configuration not stated)

>  <GI50>
> 100 µM (inactive)

$$$$
>  <compound>
NS(=O)(=O)c1ccc(NC2=CC(=O)C(=O)c3ccccc32)cc1

>  <GI50>
> 100 µM (inactive)

$$$$
>  <compound>
CS(=O)(=O)Nc1ccc2ccccc2c1

>  <GI50>
> 100 µM (inactive)

$$$$
>  <compound>
c1cc2cc(c1)CN1CCNCCN(CCNCC1)Cc1cccc(c1)CN1CCNCCN(CCNCC1)C2

>  <GI50>
> 100 µM (inactive)

$$$$
>  <compound>
c1ccc2sc(C3(N4CCCCC4)CCCC3)cc2c1

>  <GI50>
15.9 µM (inactive)

$$$$
>  <compound>
C[C@@H]1C[C@@H]([C@H](O)CC2CC(=O)NC(=O)C2)C(=O)[C@@H](C)C1 [CYCLOHEXIMIDE]

>  <GI50>
0.083 µM (active)

$$$$
>  <compound>
COc1ccc(/C=C/c2nnc(S)[nH]2)cc1OC

>  <GI50>
> 100 µM (inactive)

$$$$
>  <compound>
C=C(CCC/C(C)=C/C=C/[C@@H](C)CCCc1ccoc1)C[C@@H]1OC(=O)[C@H](C)[C@@H]1O

>  <GI50>
9.77 µM (inactive)

$$$$
>  <compound>
O=C1OC(c2ccccc2)=N/C1=C/NC(Cc1ccccc1)C(=O)O (configuration not stated)

>  <GI50>
50.8 µM (inactive)

$$$$
>  <compound>
CCOC(=O)C(=O)N/N=C1\C(=O)Nc2ccccc21

>  <GI50>
> 100 µM (inactive)

$$$$
>  <compound>
CC1(/C=C/CCSc2ccccc2)CC(=O)C2CC1C2(C)C (configuration not stated)

>  <GI50>
11.2 µM (inactive)

$$$$
